Experimental Target: YghU (Escherichia coli, UniProt Q46845)
Sequence (Q46845 whole entry): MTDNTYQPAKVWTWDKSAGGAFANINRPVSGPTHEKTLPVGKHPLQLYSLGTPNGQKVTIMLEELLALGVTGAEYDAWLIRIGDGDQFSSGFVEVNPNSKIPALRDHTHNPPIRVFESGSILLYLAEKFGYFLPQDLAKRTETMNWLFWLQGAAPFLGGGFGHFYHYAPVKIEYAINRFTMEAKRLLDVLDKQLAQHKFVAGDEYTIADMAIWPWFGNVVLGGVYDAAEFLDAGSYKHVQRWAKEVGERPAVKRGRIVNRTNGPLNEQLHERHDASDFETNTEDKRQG
Method Notes: intrinsic protein fluorescence titration, single-site fit
Readout Name: pKd
Keep it numeric: pKd is minus log10 of the concentration in mol/L.

Given NCCCCNCCCNC(=O)CNC(=O)[C@H](CS)NC(=O)CC[C@H](N)C(=O)O [GspSH] , state its recorded pKd.
3.00
